System: Aureobasidium pullulans
Assay: Minimum inhibitory concentration (MIC), serial dilution in broth, Aureobasidium pullulans
Type: cell-based
Conditions: 168 h, fungi, Sabouraud Dextrose Broth, molds: 28° C., seven days, read-out: MIC, B = Aureobasidium pullulans
assay-endpoint: MIC (µg/mL)
Expressed in µg/mL, but write only the number.

Would you mind telling me what MIC value was observed for COn1c(=S)n(C)c(=O)c2ccccc21 [IIh] ?
512

Would you mind telling me what MIC value was observed for O=c1c2ccccc2n(O)c(=S)n1-c1ccccc1 [IIe] ?
16

Would you mind telling me what MIC value was observed for Cn1c(=O)c2ccccc2n(OC(=O)c2ccccc2)c1=S [IIk] ?
256

Would you mind telling me what MIC value was observed for CCOC(=O)c1ccccc1N(O)C(=S)NC [Ib] ?
8

Would you mind telling me what MIC value was observed for CNC(=S)N(O)c1ccc(C)cc1C(=O)OC [Id] ?
8

Would you mind telling me what MIC value was observed for C=CCn1c(=O)c2ccccc2n(O)c1=S [IIf] ?
16

Would you mind telling me what MIC value was observed for CNC(=S)N(O)c1cc(Cl)ccc1C(=O)OC [Ic] ?
4

Would you mind telling me what MIC value was observed for Cc1ccc2c(c1)c(=O)n(C)c(=S)n2O [IId] ?
4

Would you mind telling me what MIC value was observed for Cn1c(=O)c2ccccc2n(OC(=O)O)c1=S [IIm] ?
8

Would you mind telling me what MIC value was observed for C=CCNC(=S)N(O)c1ccccc1C(=O)OCC [If] ?
16

Would you mind telling me what MIC value was observed for C=CC(=O)On1c(=S)n(C)c(=O)c2ccccc21 [Compound IIj] ?
4

Would you mind telling me what MIC value was observed for O=c1[nH]c(=S)n(O)c2ccccc12 [Compound IIg] ?
128

Would you mind telling me what MIC value was observed for C=C(C)C(=O)On1c(=S)n(C)c(=O)c2ccccc21 [IIl] ?
4

Would you mind telling me what MIC value was observed for CCOC(=O)c1ccccc1N(O)C(=S)Nc1ccccc1 [Ie] ?
32

---

Experiment: UV stability (photolysis in aqueous solution, immersion well photochemical apparatus)
Format: physicochemical
Conditions: first order; 100 ppm in KH2PO4 buffer pH=7, 25° C., 450 Watt medium pressure lamp, absorption at 325 nm; read-out: photodecomposition T1/2
assay-endpoint: half-life (min)
Expressed in min, but write only the number.

Would you mind telling me what half-life value was observed for Cn1c(=O)c2ccccc2n(O)c1=S [Compound IIa] ?
55
